Numbers sourced from patent US20230012273A1.

Kd overview
# TEST TARGET: T1, cynomolgus SIRPβ1v3 (XP_005568593) extracellular domain + His-tag (cynomolgus monkey)
# T1 construct: SPR analyte; also called Cyno SIRPβ1v3 XP_005568593; cynoSIRPβ1v3; not shown: His-tag
# T1 chain: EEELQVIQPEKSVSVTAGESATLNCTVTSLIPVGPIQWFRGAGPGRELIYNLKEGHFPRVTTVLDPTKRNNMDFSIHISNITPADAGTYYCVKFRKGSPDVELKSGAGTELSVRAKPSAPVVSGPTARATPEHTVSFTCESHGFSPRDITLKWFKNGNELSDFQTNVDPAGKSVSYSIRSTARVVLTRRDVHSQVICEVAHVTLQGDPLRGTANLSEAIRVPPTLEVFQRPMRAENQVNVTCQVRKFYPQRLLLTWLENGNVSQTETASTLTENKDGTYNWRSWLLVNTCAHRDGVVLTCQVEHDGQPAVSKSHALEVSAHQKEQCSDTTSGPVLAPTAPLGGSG
# ASSAY DETAILS: SPR, antibody captured, ECD-His analyte

BINDER	Kd
Antibody E7 (antibody, human IgG1, kappa, L234A L235A, V domains shown) VH: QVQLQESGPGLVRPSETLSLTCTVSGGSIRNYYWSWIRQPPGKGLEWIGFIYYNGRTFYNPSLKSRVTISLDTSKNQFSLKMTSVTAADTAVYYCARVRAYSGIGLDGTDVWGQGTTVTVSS VL: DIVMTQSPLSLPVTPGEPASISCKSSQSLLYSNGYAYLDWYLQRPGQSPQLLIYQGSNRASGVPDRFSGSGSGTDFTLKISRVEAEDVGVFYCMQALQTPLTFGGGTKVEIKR	13.1 nM
Antibody E6 (antibody, human IgG1, kappa, L234A L235A, V domains shown) VH: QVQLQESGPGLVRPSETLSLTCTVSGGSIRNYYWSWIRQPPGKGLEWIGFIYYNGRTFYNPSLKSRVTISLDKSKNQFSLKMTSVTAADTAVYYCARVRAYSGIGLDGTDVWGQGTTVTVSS VL: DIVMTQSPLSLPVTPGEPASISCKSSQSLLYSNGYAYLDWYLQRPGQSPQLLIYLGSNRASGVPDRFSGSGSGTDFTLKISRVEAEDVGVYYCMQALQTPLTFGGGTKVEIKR	23.9 nM
Antibody E9 (antibody, human IgG1, kappa, L234A L235A, V domains shown) VH: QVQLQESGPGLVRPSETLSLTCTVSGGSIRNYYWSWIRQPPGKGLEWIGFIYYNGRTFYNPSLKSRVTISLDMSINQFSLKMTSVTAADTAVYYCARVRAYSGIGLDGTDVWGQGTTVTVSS VL: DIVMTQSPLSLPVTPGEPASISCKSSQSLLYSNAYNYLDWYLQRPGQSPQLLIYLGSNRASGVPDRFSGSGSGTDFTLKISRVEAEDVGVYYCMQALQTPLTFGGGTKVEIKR	25.1 nM
